src = ChEMBL document CHEMBL1240422

I'd appreciate it if you could supply Activity values for the items below.
# System: A-375
# Test protocol: Cell cycle arrest in human A375 cells assessed as accumulation at G2/M phase at 4 uM after 24 hrs using propidium iodide staining by FACS
# Format: functional
Respond numerically; units are % and should not be typed.

Fill in the recorded Activity for this compound, with A-375 as test system: `COc1ccc(/C=C\c2cc(OC)c(OC)c(OC)c2)cc1O`
12.81

Next up: COc1cc(C2=NOC(c3cc(OC)c(OC)c(OC)c3)C2)ccc1OCCCOc1cc2c(cc1OC)C(=O)N1CCC[C@H]1C=N2 (stereo partly specified)
0.4

Follow-up entry: COc1cc(C2=NOC(c3cc(OC)c(OC)c(OC)c3)C2)ccc1OCCCCCOc1cc2c(cc1OC)C(=O)N1CCC[C@H]1C=N2 (stereo partly specified)
1.15

Similarly, COc1cc(C2=NOC(c3cc(OC)c(OC)c(OC)c3)C2)ccc1O (stereo unspecified) ?
1.82

Here is the next compound: COc1ccc(C2=NOC(c3cc(OC)c(OC)c(OC)c3)C2)cc1OCCCCOc1cc2c(cc1OC)C(=O)N1CCC[C@H]1C=N2 (stereo partly specified)
1.23

What about `COc1cc2c(cc1O)N=C[C@@H]1CCCN1C2=O` ?
1.33
